Sourced from patent US20240067632A1

# assayed_target: WEE1 (Homo sapiens, UniProt P30291+Q96SW2)
# Construct: C-terminal ePL-tagged (DiscoverX, Fremont, CA) full-length WEE1 expression construct; expressed in transfected cells; host or cells: LentiX-HEK293T (Invitrogen), lentiviral transduction; co-expressing GSPT1-GN (G576N, lacking the first 158 amino acids)
# procedure_details: WEE1-ePL degradation assay (LentiX-WEE1-ePL-GSPT1-ND cells, InCELL Hunter luminescence, 4 h)
# Type: cell-based
# test_conditions: 293T-LentiX WEE1-ePL cells, read-out: 293T-LentiX WEE1-ePL Degradation 4 hr (EC50)
# Method: To generate LentiX-WEE1-ePL-GSPT1-ND cells for the WEE1 degradation assay, LentiX-HEK293T (Invitrogen) were transduced by lentivirus with a C-terminal ePL-tagged (DiscoverX, Fremont, CA) full-length WEE1 expression construct. […] Cells were selected and maintained in complete DMEM media (DMEM, 10% Heat Inactivated FBS, 400 μg/mL Geneticin, and 1 μg/mL puromycin at 37 C and 5% CO2). Cells were passaged every 3-4 days by reseeding 1×10^6 cells in a T150 flask. […]
reported_property: DC50 (nM)

Consider the worked cases shown below.
O=C1CCC(N2Cc3cc(O[C@H]4CCN(Cc5ccc6nc([C@@H]7CCCOC7)ncc6c5)C4)ccc3C2=O)C(=O)N1 (stereo partly shown) :: 33.8
CO[C@H]1CCC[C@@H](c2ccc3cc(CN4CC[C@H](Oc5ccc6c(c5)CN(C5CCC(=O)NC5=O)C6=O)C4)ccc3n2)C1 (stereo partly shown) :: 3.49
C[C@@H]1CN(Cc2cc(F)c3nc([C@H]4CCOC4)ccc3c2)C[C@H]1Oc1ccc2c(c1)CN([C@H]1CCC(=O)NC1=O)C2=O :: 0.985
O=C1CCC(N2Cc3cc(O[C@H]4CCN(Cc5cc6ccncc6cn5)C4)ccc3C2=O)C(=O)N1 (stereo partly shown) :: 19.3
O=C1CCC(N2Cc3cc(O[C@H]4CCN(Cc5ccc6nc(N7CCC[C@]78CCOC8)ccc6c5)C4)ccc3C2=O)C(=O)N1 (stereo partly shown) :: 6.81
O=C1CCC(N2C(=O)c3ccc(O[C@H]4CCN(Cc5cnc6ccccc6c5)C4)cc3C2=O)C(=O)N1 (stereo partly shown) :: 32.9
N#Cc1ccc2cc(CN3CC[C@H](Oc4ccc5c(c4)CN([C@H]4CCC(=O)NC4=O)C5=O)C3)ccc2n1 :: 2.46
O=C1CCC(N2Cc3cc(O[C@H]4CCN(Cc5ccc6nc(C7CC7)ccc6c5)C4)ccc3C2=O)C(=O)N1 (stereo partly shown) :: 2.21

[P] Cc1ccc2c(F)c(CN3CC[C@H](Oc4ccc5c(c4)CN(C4CCC(=O)NC4=O)C5=O)C3)ccc2n1 (stereo partly shown)
[Q] O=C1CCC(N2Cc3cc(O[C@H]4CCN(Cc5cnc6c(c5)CCO6)C4)ccc3C2=O)C(=O)N1 (stereo partly shown)
Out of P and Q , name the one with the higher DC50. Pick one; state its label.
Q
(Q: 60.1 nM, P: 1.51 nM)
